Cited source for all entries: patent US20220281876A1

- STUDY TARGET: BTK (Homo sapiens, UniProt Q06187)
- Construct: endogenous in cells; host or cells: Ramos cells
- Sequence (Q06187 whole entry): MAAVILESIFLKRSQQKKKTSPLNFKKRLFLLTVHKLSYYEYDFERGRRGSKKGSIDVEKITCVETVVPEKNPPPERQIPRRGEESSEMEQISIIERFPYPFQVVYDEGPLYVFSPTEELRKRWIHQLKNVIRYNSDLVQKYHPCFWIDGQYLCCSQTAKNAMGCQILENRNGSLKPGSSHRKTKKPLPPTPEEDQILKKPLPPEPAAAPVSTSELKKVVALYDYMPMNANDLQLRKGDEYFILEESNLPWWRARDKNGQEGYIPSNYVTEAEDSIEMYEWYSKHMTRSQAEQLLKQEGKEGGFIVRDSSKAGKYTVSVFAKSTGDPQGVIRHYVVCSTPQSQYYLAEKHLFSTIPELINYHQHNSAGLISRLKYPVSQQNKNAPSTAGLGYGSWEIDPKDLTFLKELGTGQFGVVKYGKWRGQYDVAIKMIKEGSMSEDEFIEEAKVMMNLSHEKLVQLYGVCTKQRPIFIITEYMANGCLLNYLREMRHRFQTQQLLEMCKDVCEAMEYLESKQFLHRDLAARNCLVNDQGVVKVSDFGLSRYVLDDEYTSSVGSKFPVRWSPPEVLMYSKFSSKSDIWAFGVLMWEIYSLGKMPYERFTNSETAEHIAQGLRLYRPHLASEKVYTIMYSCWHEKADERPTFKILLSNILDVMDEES
- ASSAY REMARKS: BTK cell degradation in Ramos cells (total BTK ELISA)
- Type: cell-based
- DETAILS: 16 h incubation, FastScan total BTK ELISA
Quick reference: DC50 of the listed items.

{"MOLECULE": "CN(/C=C/C(=O)N1CCC([C@@H]2CCNc3c(C(N)=O)c(-c4ccc(Oc5ccccc5)cc4)nn32)CC1)CCNc1cccc2c1C(=O)N(C1CCC(=O)NC1=O)C2=O (some centres unmarked)", "STUDY TARGET": "BTK (Homo sapiens, UniProt Q06187)", "DC50": "> 10 µM"}
{"MOLECULE": "NC(=O)c1c(-c2ccc(Oc3ccccc3)cc2)nn2c1NCC[C@H]2C1CCN(C(=O)c2cn(CCOCCOCCOCCOCCOCCOCCOCCNc3cccc4c3C(=O)N(C3CCC(=O)NC3=O)C4=O)nn2)CC1 (some centres unmarked)", "STUDY TARGET": "BTK (Homo sapiens, UniProt Q06187)", "DC50": "> 10 µM"}
{"MOLECULE": "NC(=O)c1c(-c2ccc(Oc3ccccc3)cc2)nn2c1NCC[C@H]2C1CCN(C(=O)CCN2CCN(c3ccc(CNC(=O)CNc4cccc5c4CN(C4CCC(=O)NC4=O)C5=O)cc3)CC2)CC1 (some centres unmarked)", "STUDY TARGET": "BTK (Homo sapiens, UniProt Q06187)", "DC50": "0.382 µM"}
{"MOLECULE": "NC(=O)c1c(-c2ccc(Oc3ccccc3)cc2)nn2c1NCC[C@H]2C1CCN(C(=O)CCN2CCC(N3CCN(c4ccc5c(c4)C(=O)N(C4CCC(=O)NC4=O)C5=O)CC3)CC2)CC1 (some centres unmarked)", "STUDY TARGET": "BTK (Homo sapiens, UniProt Q06187)", "DC50": "1.68 µM"}

Input line: Lab request: please report DC50 under test system BTK (Homo sapiens, UniProt Q06187) for NC(=O)c1c(-c2ccc(Oc3ccccc3)cc2)nn2c1NCC[C@H]2C1CCN(C(=O)c2cn(CCOCCCc3cccc4c3CN(C3CCC(=O)NC3=O)C4=O)nn2)CC1 (some centres unmarked)
Output line: > 10 µM

* * *

- STUDY TARGET: BTK (Homo sapiens, UniProt Q06187)
- Construct: endogenous in cells; host or cells: Ramos cells
- ASSAY REMARKS: BTK cell degradation in Ramos cells (total BTK ELISA)
- Type: cell-based
- DETAILS: 16 h incubation, FastScan total BTK ELISA
OBSERVATION TYPE: DC50
Put your answer as a value accompanied by its unit after it.

The examples below pair each entry with its known result.
{"MOLECULE": "NC(=O)c1c(-c2ccc(Oc3ccccc3)cc2)nn2c1NCC[C@H]2C1CCN(C(=O)CCc2ccc(N3CCN(c4ccc5c(c4)C(=O)N(C4CCC(=O)NC4=O)C5=O)CC3)cc2)CC1 (stereo partly drawn)", "OBSERVATION TYPE": "DC50", "MEASURED RESULT": "74 nM"}
{"MOLECULE": "CN(C/C=C/C(=O)N1CCC([C@@H]2CCNc3c(C(N)=O)c(-c4ccc(Oc5ccccc5)cc4)nn32)CC1)CCCCCCNc1cccc2c1CN(C1CCC(=O)NC1=O)C2=O (stereo partly drawn)", "OBSERVATION TYPE": "DC50", "MEASURED RESULT": "315 nM"}

Now consider a different molecule.
Input line: Given CN(CCOCCNc1cccc2c1C(=O)N(C1CCC(=O)NC1=O)C2=O)CCC(=O)N1CCC([C@@H]2CCNc3c(C(N)=O)c(-c4ccc(Oc5ccccc5)cc4)nn32)CC1 (stereo partly drawn) , state its recorded DC50.
Output line: 120 nM
